The origin of these recorded values is patent US20230233569A1.

Measurement Target: KRAS G12D (Homo sapiens, UniProt P01116+P62937, G12D)
Sequence (P01116 1-169 isoform P01116-2 G12D limits assumed): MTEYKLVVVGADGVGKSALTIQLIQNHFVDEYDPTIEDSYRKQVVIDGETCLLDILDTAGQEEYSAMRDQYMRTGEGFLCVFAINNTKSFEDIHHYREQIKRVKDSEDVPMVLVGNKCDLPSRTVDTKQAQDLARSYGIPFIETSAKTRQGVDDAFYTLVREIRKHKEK
Sequence (P62937 whole entry): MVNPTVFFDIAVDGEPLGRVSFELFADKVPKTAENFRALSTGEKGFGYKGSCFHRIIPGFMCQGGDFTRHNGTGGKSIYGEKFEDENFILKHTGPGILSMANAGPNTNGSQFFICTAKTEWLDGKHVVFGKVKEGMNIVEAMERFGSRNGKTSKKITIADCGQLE
Run Description: Disruption of BRAF RBD interaction with Ras (FRET / MOA assay, with Cyclophilin A)
Format: biochemical
Condition Details: read-out: KRAS G12D FRET data, IC50
pIC50: −log10 of the molar value.
Measurement Kind: pIC50

Example results:
# Molecule, Measurement Target, Obs Value
rows = [
    ("C=CC(=O)N1CC[C@H](C(=O)N(C)[C@H](C(=O)N[C@H]2C[C@H]3CN(CCCO3)c3ccc4c(c3)c(c(-c3cccnc3[C@H](C)OC)n4CC)CC(C)(C)COC(=O)[C@@H]3CCCN(N3)C2=O)C(C)C)C1 (racemic) [Example A405]", "KRAS G12D (Homo sapiens, UniProt P01116+P62937, G12D)", "< 5.00"),
    ("CCn1c(-c2cccnc2[C@H](C)OC)c2c3cc(ccc31)-c1csc(n1)C[C@H](NC(=O)[C@H](C(C)C)N(C)C(=O)N1CC(C)(OC)C1)C(=O)N1CCC[C@H](N1)C(=O)OCC(C)(C)C2 [Example A299]", "KRAS G12D (Homo sapiens, UniProt P01116+P62937, G12D)", "5.00 to 6.00"),
    ("CCn1c(-c2cccnc2[C@H](C)OC)c2c3cc(ccc31)-c1csc(n1)C[C@H](NC(=O)[C@H](C(C)C)N(C)C(=O)[C@H]1CCCO1)C(=O)N1CCC[C@H](N1)C(=O)OCC(C)(C)C2 [Example A238]", "KRAS G12D (Homo sapiens, UniProt P01116+P62937, G12D)", "< 5.00"),
]

Name the recorded pIC50 of the item CCn1c(-c2cccnc2[C@H](C)OC)c2c3cc(ccc31)-c1cccc(c1)C[C@H](NC(=O)[C@H](C(C)C)N1CC[C@]3(CCN(C(=O)C#C[C@@H]4COCCN4C4COC4)C3)C1=O)C(=O)N1CCC[C@H](N1)C(=O)OCC(C)(C)C2 [Example A565] in your answer.
< 5.00

Name the recorded pIC50 of the item C=CC(=O)N1CC[C@H](C(=O)N(C)[C@H](C(=O)N[C@H]2Cc3cc(O)cc(c3)-c3ccc4c(c3)c(c(-c3ccc(CN(C)C)cc3COC)n4CC)CC(C)(C)COC(=O)[C@@H]3CCCN(N3)C2=O)C(C)C)C1 [Example A051] in your answer.
5.00 to 6.00

Name the recorded pIC50 of the item CCn1c(-c2cccnc2[C@H](C)OC)c2c3cc(ccc31)-c1csc(n1)C[C@H](NC(=O)[C@H](C(C)C)N(C)C(=O)N1CC[C@@H](N(C)C)C1)C(=O)N1CCC[C@H](N1)C(=O)OCC(C)(C)C2 (atropisomer, axis not shown) [Example A566] in your answer.
6.00 to 7.00

Name the recorded pIC50 of the item CCn1c(-c2cccnc2[C@H](C)OC)c2c3cc(ccc31)-c1csc(n1)C[C@H](NC(=O)[C@H](C(C)C)N(C)C(=O)[C@H]1CCN(C(=O)C(C)(C)N(C)C)C1)C(=O)N1CCC[C@H](N1)C(=O)OCC(C)(C)C2 [Example A113] in your answer.
5.00 to 6.00

Name the recorded pIC50 of the item CCn1c(-c2cccnc2[C@H](C)OC)c2c3cc(ccc31)-c1cc(O)cc(c1)C[C@H](NC(=O)[C@H](C(C)C)N(C)C(=O)[C@@H]1OC[C@@H]3CCC[C@@H]31)C(=O)N1CCC[C@H](N1)C(=O)OCC(C)(C)C2 [Example A407] in your answer.
6.00 to 7.00

----------
Measurement Target: KRAS G13C (Homo sapiens, UniProt P01116+P62937, G13C)
Sequence (P01116 1-169 isoform P01116-2 G13C limits assumed): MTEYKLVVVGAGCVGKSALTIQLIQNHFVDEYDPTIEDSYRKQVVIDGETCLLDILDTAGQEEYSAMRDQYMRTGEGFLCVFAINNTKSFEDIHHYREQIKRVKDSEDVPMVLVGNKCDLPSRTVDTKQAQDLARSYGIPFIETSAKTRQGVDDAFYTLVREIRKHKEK
Sequence (P62937 whole entry): as the sequence (P62937 whole entry) above
Run Description: Ras-Raf disruption / FRET / MOA assay (BRAF RBD)
Type: biochemical
Condition Details: Ras-Raf disruption, with Cyclophilin A; read-out: KRAS G13C FRET data IC50
pIC50: −log10 of the molar value.
Measurement Kind: pIC50

# Compound, pIC50
rows = [
    ("CCn1c(-c2cccnc2[C@H](C)OC)c2c3cc(ccc31)-c1cc(O)cc(c1)C[C@H](NC(=O)[C@H](C(C)C)N(C)C(=O)N1CC[C@@H](N(C)C(=O)[C@@H]3CN3)C1)C(=O)N1CCC[C@H](N1)C(=O)OCC(C)(C)C2 (atropisomer, axis not shown) [Example 253]", "7.00 to 8.00"),
    ("CCn1c(-c2cccnc2[C@H](C)OC)c2c3cc(ccc31)-c1cc(O)cc(c1)C[C@H](NC(=O)[C@H](C(C)C)N(C)C(=O)[C@H]1C[C@H](NC(=O)[C@H]3CN3)C1)C(=O)N1CCC[C@H](N1)C(=O)OCC(C)(C)C2 [Example 182]", "> 8.00"),
    ("CCn1c(-c2cccnc2[C@H](C)OC)c2c3cc(ccc31)-c1cc(O)cc(c1)C[C@H](NC(=O)[C@H](C(C)C)N(C)C(=O)N1C[C@@H]3[C@H]1CCN3C(=O)[C@H]1CN1)C(=O)N1CCC[C@H](N1)C(=O)OCC(C)(C)C2 (atropisomer, axis not shown) [Example 250]", "6.00 to 7.00"),
]

Name the recorded pIC50 of the item CCn1c(-c2cccnc2[C@H](C)OC)c2c3cc(ccc31)-c1csc(n1)C[C@H](NC(=O)[C@H](C(C)C)N(C)C(=O)N1CC(N(C)C(=O)[C@@H]3CN3)C1)C(=O)N1CCC[C@H](N1)C(=O)OCC(C)(C)C2 (atropisomer, axis not shown) [Example 219] in your answer.
6.00 to 7.00

----------
Measurement Target: KRAS G12D (Homo sapiens, UniProt P01116+P62937, G12D)
Run Description: Disruption of BRAF RBD interaction with Ras (FRET / MOA assay, with Cyclophilin A)
Assay type: biochemical
Condition Details: read-out: KRAS G12D FRET data, IC50
Measurement Kind: IC50

# Compound, IC50
records = [
    ("CCn1c(-c2cccnc2[C@H](C)OC)c2c3cc(ccc31)-c1csc(n1)C[C@H](NC(=O)[C@H](C(C)C)N(C)C(=O)N1C[C@H]3CN(C)C[C@H]3C1)C(=O)N1CCC[C@H](N1)C(=O)OCC(C)(C)C2", "100 to 1000 nM"),
]

Name the recorded IC50 of the item CCn1c(-c2cccnc2[C@H](C)OC)c2c3cc(ccc31)-c1csc(n1)C[C@H](NC(=O)[C@H](C(C)C)N(C)C(=O)N1CCN(C(=O)CO)CC1)C(=O)N1CCC[C@H](N1)C(=O)OCC(C)(C)C2 (atropisomer, axis not shown) in your answer.
100 to 1000 nM

Name the recorded IC50 of the item CCn1c(-c2cccnc2[C@H](C)OC)c2c3cc(ccc31)-c1csc(n1)C[C@H](NC(=O)[C@H](C(C)C)N(C)C(=O)N1[C@H](C)CN(C)C[C@H]1C)C(=O)N1CCC[C@H](N1)C(=O)OCC(C)(C)C2 in your answer.
100 to 1000 nM

Name the recorded IC50 of the item C=CC(=O)N1C[C@H](C)[C@H](C(=O)N(C)[C@H](C(=O)N[C@H]2Cc3cc(O)cc(c3)-c3ccc4c(c3)c(c(-c3ccccc3CN(C)C)n4CC)CC(C)(C)COC(=O)[C@@H]3CCCN(N3)C2=O)C(C)C)C1 in your answer.
1000 to 10000 nM

Name the recorded IC50 of the item CCn1c(-c2cccnc2[C@H](C)OC)c2c3cc(ccc31)-c1cc(C#N)cc(c1)C[C@H](NC(=O)[C@H](C(C)C)N(C)C(C)=O)C(=O)N1CCC[C@H](N1)C(=O)OCC(C)(C)C2 (atropisomer, axis not shown) in your answer.
> 10000 nM

Name the recorded IC50 of the item CCn1c(-c2cccnc2[C@H](C)OC)c2c3cc(ccc31)-c1csc(n1)[C@@H](O)[C@H](NC(=O)[C@H](C(C)C)N(C)C(=O)N1CC(N(C)C)C1)C(=O)N1CCC[C@H](N1)C(=O)OCC(C)(C)C2 (atropisomer, axis not shown) in your answer.
1000 to 10000 nM

Name the recorded IC50 of the item CCN(C(=O)N(C)[C@H](C(=O)N[C@H]1Cc2nc(cs2)-c2ccc3c(c2)c(c(-c2cccnc2[C@H](C)OC)n3CC)CC(C)(C)COC(=O)[C@@H]2CCCN(N2)C1=O)C(C)C)C(C)C in your answer.
100 to 1000 nM

Name the recorded IC50 of the item CCn1c(-c2cccnc2[C@H](C)OC)c2c3cc(ccc31)-c1csc(n1)C[C@H](NC(=O)[C@H](C(C)C)N(C)C(=O)[C@H]1CCN(C(=O)/C=C/CN(C)C)C1)C(=O)N1CCC[C@H](N1)C(=O)OCC(C)(C)C2 in your answer.
1000 to 10000 nM
